Can you tell me self-cleavage for the items I'm about to list?
B1: HDV Ribozyme (parent)
chain: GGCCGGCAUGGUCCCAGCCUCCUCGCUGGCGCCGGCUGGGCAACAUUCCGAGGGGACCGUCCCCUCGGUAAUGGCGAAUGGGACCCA

Variants of: B1
Procedure Details: self-cleavage, relative activity (ratio to wild type); higher = more cleavage; co-transcriptional
I only need the number, thanks.

Look up self-cleavage: C57U U65G 0.919

Also, A43U C75G please. 0.0639

// query: C19U A87U 0.149

What about this variant? C30U G54U 0.597

Repeat with C7G G11C 0

Same for G34A C84A 0.126

// repeat for G25C G54C and report 0.138

Also, C49G G73U please. 0.322

Same question, C4A C7A this time 0.0449

Okay, and G10U C32A ? 0.1

# repeat for G5U U37A 0.0723

Lookup G31C G52A 0.234

Consider next the variant A8G G55A in the same way. 0.655

Entry to check: A16G A87C 1.09

// query: G39U U47C 0.393

Try this variant too: C41G A83C 0.123

Again, but for `U69G` 0.981

Can you handle G54A G59C next? 1.07

What do you get for A42G G55A ? 0.485

What do we get for A8G C41G ? 0.578

Would you mind doing G11U A78U as well? 0.0755

Cool, now C14U G25C 0.199

Okay, and G6A C63G ? 0.601

Please give the result for C24U G35C too. 0.0339

Now consider U12A G52U and answer again. 0.604

Would you kindly repeat that for A56U C66A ? 1.03

Would you kindly repeat that for C57U G59U ? 1.2

And U23G A56U ? 0.759

Likewise for U23A C32G ? 0.253

Same read-out for A16G G28U ? 0.0519

What about this variant? U23C A45C 0.573

Further, for A8C C49A ? 0.9

Next variant: C33U G54C 0.623

Now the variant G2A C22G 0.0191

Also C18G C33G ? 0.119

Now consider G2C C7G and answer again. 0.0692

And what about the variant C4U G34A ? 0.772

Next variant: G34U C36G 0.0302

Would you mind doing C24G G25A as well? 0.0959

What about C64G U79A ? 0.692

Proceed to C7A C22U 0

Item: C48U C86G 1.14

Let us now turn to A51U U65G 1.3

Also U9C C24G ? 0.0536

Entry G1C U27C please 0

Can you check G10A A87G next? 0.857

Now consider C26A C44G . 0.712

Then what about the variant G31A A83C ? 0.0811

And what about the variant U27C C32U ? 0.115

Likewise for U60A A70C ? 0.808

Try the variant G67C A77G 0.508

Repeat for the following variant: C36G G82A 0.07

Same lookup for C61A C64U , please. 0.997

# iterate: C26G C41G 0.739

Now try U27A G31U . 0.244

Same lookup for G28C U69A , please. 0.123

Lookup C22U A45G 0.656

Repeat for the following variant: A71C C85U 0.875

Moving on to G25A U79C 0.0583

What do we get for U65C A83C ? 0.867

And for C32G G35C ? 0.0386

Next variant up: U60G U65C 1.17

And C22G G76A ? 0.0354

And what about the variant U37A G53C ? 0.162

`C4A` ? 0.315

Here is the next variant: G11C G52C 0.266

Check C57U C62A too. 0.941

For C22U C58A then? 0.914

Follow-up item: G1U A56C 0.494

Thanks! And C22G G38U ? 0.117

Now try A43G A56C . 0.587

Now consider G38C G74A . 0.0936

Do the same for G67C G76C please 1.09

Moving on to the next variant: C58G C61U 0.851

Further, for G28U C75G ? 0.0302

Similarly, G1C C15U ? 0.0831

Next: C26A U72G 0.657

Also check U37A G67C 0.128

Repeat for the following variant: C49G U79C 0.631

Request: G10U C57U 0.855

What about this variant? U46G C57G 0.804

And for A8C G38U ? 0.0875

Consider next the variant G5C G81A in the same way. 0.104

Next: G29A C62U 0.159

Query G39U G81U next 0.185

Follow-up item: U20G U37C 0.237

Item: C18A U72A 0.0504

Please answer likewise for G59C C62G 0.6

Thanks! And C19A G76C ? 0.102

What about G31A G39C ? 0.182

Same read-out for C14G C36U ? 0.375
